Quick reference: kon of the listed items.
# testTarget: T1, recombinant human CTLA4-his protein (Acro biosystems, Cat#CT4-H5229) (human, UniProt P16410 37-162)
# T1 construct: bought recombinant protein; not shown: his tag
# T1 sequence (looked up): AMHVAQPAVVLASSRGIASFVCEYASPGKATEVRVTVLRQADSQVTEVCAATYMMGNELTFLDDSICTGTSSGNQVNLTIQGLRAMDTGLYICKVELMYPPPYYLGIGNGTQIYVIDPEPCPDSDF
# assayDetails: BLI, Octet; antibody from cell supernatant on AHC sensor, CTLA4-his as analyte
Write the number in M⁻¹ s⁻¹ without appending the unit.

Before answering, review these 3 worked examples.
[[record]]
binder = "huD1D5-V11 (antibody, human IgG4 S228P, kappa, V domains shown, humanized IgG4/kappa; tested as 293F cell supernatant on Octet; also called hu CTLA4 D1D5-V11) VH: EVQLVESGGGLVKPGGSLRLSCAASGFTFSDYGMAWVRQAPGKGLEWVAFISNLAYSVYYADTETGRFTISRDDAKNSLYLQMNSLRAEDTAVYYCARSGLPYAMDYWGQGTTVTVSS VL: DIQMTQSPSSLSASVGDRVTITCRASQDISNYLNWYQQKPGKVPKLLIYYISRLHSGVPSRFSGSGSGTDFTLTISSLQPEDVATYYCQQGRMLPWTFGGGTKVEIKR"
quantitymeasured = "kon"
measurementunit = "M⁻¹ s⁻¹"
numericvalue = 77500

[[record]]
binder = "huC1D1-V10 (antibody, human IgG4 S228P, kappa, V domains shown, humanized IgG4/kappa; tested as 293F cell supernatant on Octet; also called hu CTLA4 C1D1-V10) VH: EVQLVESGGGLVQPGRSLRLSCTASGFTFSDNWMNWVRQAPGKGLEWVAQIRNKPYNYETYYSDSVKGRFTISRDDSKSIAYLQMNSLKTEDTAVYYCTGGMDYWGQGTTVTVSS VL: DIQMTQSPSSLSASVGDRVTITCGASEIIYGALNWYQQKPGKVPKLLIYGATNLADGVPSRFSGSGSGTDFTLTISSLQPEDVATYYCQKILSPPPWTFGGGTKVEIKR"
quantitymeasured = "kon"
measurementunit = "M⁻¹ s⁻¹"
numericvalue = 322000

[[record]]
binder = "huC1D1-V7 (antibody, human IgG4 S228P, kappa, V domains shown, humanized IgG4/kappa; tested as 293F cell supernatant on Octet; also called hu CTLA4 C1D1-V7) VH: EVQLVESGGGLVQPGRSLRLSCTASGFTFSDNWMNWVRQAPGKGLEWVGQIRNKPYNYETYYSDSVKGRFTISRDDSKSIVYLQMNSLKTEDTAVYYCTGGMDYWGQGTTVTVSS VL: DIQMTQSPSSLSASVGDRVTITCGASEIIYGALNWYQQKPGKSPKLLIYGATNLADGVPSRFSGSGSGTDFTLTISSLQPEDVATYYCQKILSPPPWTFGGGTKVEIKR"
quantitymeasured = "kon"
measurementunit = "M⁻¹ s⁻¹"
numericvalue = 466000


# kon (binder: huD1D5-V6 (antibody, human IgG4 S228P, kappa, V domains shown, humanized IgG4/kappa; tested as 293F cell supernatant on Octet; also called hu CTLA4 D1D5-V6) VH: EVQLVESGGGLVKPGGSLRLSCAASGFTFSDYGMAWVRQAPGKGLEWVAFISNLAYSVYYADTETGRFTISRDNAKNSLYLQMNSLRAEDTAVYYCARSGLPYAMDYWGQGTTVTVSS VL: DIQMTQSPSSLSASVGDRVTITCRASQDISNYLNWYQQKPGKVPKLLIYYISRLHSGVPSRFSGSGSGTDFTLTISSLQPEDVATYFCQQGRMLPWTFGGGTKVEIKR ) is 60900
